Entry source: patent US9840508B2

Target or system human NK-2 receptor (Homo sapiens (Human), UniProt P21452): recorded Ki listed per item.
Numbers only, in µM.

Worked cases, answers included:
# smiles.string, measurement.target, unit.symbol, Ki
rows = [
    ("Cc1ccc(-c2nnc3n2CCN(C(=O)c2ccc(Cl)cc2)[C@@H]3C)o1", "human NK-2 receptor (Homo sapiens (Human), UniProt P21452)", "µM", 23),
    ("C[C@@H]1c2nnc(-c3csc(C(F)(F)F)n3)n2CCN1C(=O)c1cc(F)c(F)c(F)c1", "human NK-2 receptor (Homo sapiens (Human), UniProt P21452)", "µM", 3.5),
]

// next item, Ki requested
Recorded Ki (molecule "Cc1ccc(-c2nnc3n2CCN(C(=O)c2cc(F)c(F)c(F)c2F)[C@@H]3C)o1" ): 30
